Answer each item with its documented pKd.
# assay.system: T1, cynomolgous monkey IL12Rβ1 (recombinant, construct not stated) (cynomolgus monkey, UniProt P42701 24-545 (human entry), limits assumed)
# T1 construct: The SPR method describes capture of an IL12Rβ1-Fc fusion, but the cyno construct is not described; the whole entry is named; also called cyno IL12Rβ1; cynomolgus IL12Rbeta1
# assay.protocol: SPR (Biacore), cyno IL12Rβ1
Worth noting: pKd values are minus log10 of concentrations stated in mol/L.

Query: pKd; subject: mAb4 (MOR11878 with IgG1 LALA Fc variant) (antibody, V domains shown, Human IgG1 L234A L235A (LALA), expressed in HKB11 cells) VH: QVQLVESGGGVVQPGRSLRLSCAASGFTFTSYGMSWVRQAPGKGLEWVAGISYDASDTEYADSVKGRFTISRDNSKNTLYLQMNSLRAEDTAVYYCARSPDYIIDYGFDYWGRGTLVTVSS VL: AIQMTQSPSSLSASVGDRVTITCRASQGISSDLAWYQQKPGKAPKLLIYDASSLQSGVPSRFSGSGSGTDFTLTISSLQPEDFATYYCQQYWWYPFTFGQGTKVEIKR 10.00

Input mAb7 (MOR11879 with IgG1 LALA Fc variant) (antibody, V domains shown, Human IgG1 L234A L235A (LALA), expressed in HKB11 cells) VH: QVQLVQSGAEVKKPGASVKVSCKASGYTFTGYYMHWVRQAPGQGLEWMGMIGPQHGEAIYAQKFQGRVTMTRDTSISTAYMELSRLRSEDTAVYYCARESTDSDESPFDYWGQGTLVTVSS VL: DIELTQPPSVSVSPGQTASITCSGDNIRSYYVSWYQQKPGQAPVLVIYDDSDRPSGIPERFSGSNSGNTATLTISGTQAEDEADYYCQSYGSHSNFVVFGGGTKLTVLG 9.22

Here is the next binder: mAb10 (MOR11880 with IgG1 LALA Fc variant) (antibody, V domains shown, Human IgG1 L234A L235A (LALA), expressed in HKB11 cells) VH: QVQLVQSGAEVKKPGASVKVSCKASGYTFTGYYMHWVRQAPGQGLEWMGMIGPQHGEAIYAQKFQGRVTMTRDTSISTAYMELSRLRSDDTAVYYCARESTDSDESPFDYWGQGTLVTVSS VL: SYELTQPLSVSVALGQTARITCSGDNIRSYYVSWYQQKPGQAPVLVIYDDSDRPSGIPERFSGSNSGNTATLTISRAQAGDEADYYCQSYGSHSNFVVFGGGTKLTVLG 9.22

Follow-up item: mAb1 (MOR11873 with IgG1 LALA Fc variant) (antibody, V domains shown, Human IgG1 L234A L235A (LALA), expressed in HKB11 cells) VH: QVQLVESGGGVVQPGRSLRLSCAASGFTFTSYGMSWVRQAPGKGLEWVAGISYSGSDTEYADSVKGRFTISRDNSKNTLYLQMNSLRAEDTAVYYCARSPDYIIDYGFDYWGRGTLVTVSS VL: AIQMTQSPSSLSASVGDRVTITCRASQGISSDLAWYQQKPGKAPKLLIYDASSLQSGVPSRFSGSGSGTDFTLTISSLQPEDFATYYCQQYWIYPFTFGQGTKVEIKR 10.00
